Each entry below carries its recorded pIC50.
- Experimental system: PLK1 (Homo sapiens)
- Sequence (P53350 whole entry): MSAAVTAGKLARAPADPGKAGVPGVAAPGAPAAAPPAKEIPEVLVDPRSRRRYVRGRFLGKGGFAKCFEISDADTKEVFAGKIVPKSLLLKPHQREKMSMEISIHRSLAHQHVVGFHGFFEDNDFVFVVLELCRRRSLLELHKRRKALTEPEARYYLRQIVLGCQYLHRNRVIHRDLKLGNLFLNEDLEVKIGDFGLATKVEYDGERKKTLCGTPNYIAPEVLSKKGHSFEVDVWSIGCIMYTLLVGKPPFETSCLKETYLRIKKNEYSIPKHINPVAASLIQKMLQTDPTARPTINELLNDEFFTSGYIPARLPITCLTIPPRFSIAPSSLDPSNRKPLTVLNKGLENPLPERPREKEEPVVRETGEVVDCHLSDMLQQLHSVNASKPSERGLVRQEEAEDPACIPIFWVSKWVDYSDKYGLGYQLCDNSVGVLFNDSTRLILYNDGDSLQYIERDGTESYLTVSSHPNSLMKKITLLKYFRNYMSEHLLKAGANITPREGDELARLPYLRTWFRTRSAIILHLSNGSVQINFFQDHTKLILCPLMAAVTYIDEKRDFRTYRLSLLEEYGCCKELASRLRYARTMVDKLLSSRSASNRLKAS
pIC50: −log10 of the molar value.

Observe how each entry below is paired with its result.
query_smiles=CC[C@@H]1C(=O)N(C)c2cnc(Nc3ccc(C(=O)NC4CCN(CCCC(=O)N[C@H](C(=O)OC5CCCC5)c5ccccc5)CC4)cc3OC)nc2N1C1CCCC1 observed="> 7.00"
query_smiles=CC[C@@H]1C(=O)N(C)c2cnc(Nc3ccc(C(=O)Nc4ccc(CCCC(=O)N[C@@H](CC(C)C)C(=O)OC5CCCC5)cc4)cc3OC)nc2N1C1CCCC1 observed="6.30 to 7.00"
query_smiles=CC[C@@H]1C(=O)N(C)c2cnc(Nc3c(F)cc(/C=C/CCCC(=O)N[C@@H](CC(C)C)C(=O)O)cc3F)nc2N1C1CCCC1 observed="> 7.00"
query_smiles=CC[C@@H]1C(=O)N(C)c2cnc(Nc3ccc(C(=O)NCCCC(=O)N[C@@H](CC(C)C)C(=O)O)cc3OC)nc2N1C1CCCC1 observed="> 7.00"
query_smiles=CC[C@@H]1C(=O)N(C)c2cnc(Nc3ccc(C(=O)NC4CCN(CCCC(=O)N[C@@H](C(=O)OC5CCCC5)c5ccccc5)CC4)cc3OC)nc2N1C1CCCC1 observed="> 7.00"

pIC50 value, target or system PLK1 (Homo sapiens), for `CC[C@@H]1C(=O)N(C)c2cnc(Nc3ccc(/C=C/CCCC(=O)N[C@@H](CC(C)C)C(=O)O)cc3F)nc2N1C1CCCC1` : > 7.00
